Tested on: L02
Experiment: Cytotoxicity against human L02 cells assessed as effect on cell viability at 40 uM after 24 hrs by MTT assay
Format: cell-based
Conditions: l02, 24 h
quantity.name: Activity

[[record]]
compound = "CC1=C2[C@H](O)C[C@]2(C)[C@H]2C[C@](C)(CO)C=C2C1=O"
measured = "Non-Toxic"

[[record]]
compound = "Cc1c(O)c2c(c(C)c1CCO)C(=O)C(C)(C)[C@@H]2O"
measured = "Non-Toxic"

[[record]]
compound = "CC1=C2CC[C@]2(C)[C@@H]2C(=CC(C)(C)[C@H]2O)C1=O"
measured = "Non-Toxic"

[[record]]
compound = "CC1C(=O)C2=CC(C)(C)C[C@]2(O)[C@@]2(C)C[C@@H](O)C12 (stereo partly specified)"
measured = "Non-Toxic"

[[record]]
compound = "CC(=O)OCCc1c(C)c(O)c2c(c1C)[C@@H](O)C(C)(C)C2"
measured = "Non-Toxic"

[[record]]
compound = "CC1=C2CC[C@]2(C)[C@H]2C[C@@](C)(CO)C=C2C1=O"
measured = "Non-Toxic"

